molecular target: urokinase (Homo sapiens, UniProt P00749)
observable: IC50 (µM)
Respond with the bare value in µM.

Quick check: IC50 on urokinase (Homo sapiens, UniProt P00749), item C=C(C)[C@@H]1CC[C@]2(C(=O)O)CC[C@]3(C)[C@H](CC[C@@H]4[C@@]5(C)CC[C@H](O)C(C)(C)[C@@H]5CC[C@]43C)[C@@H]12 ?
5

====

target: plasmin (Homo sapiens)
Sequence (P00747 581-810 limits assumed, species assumed): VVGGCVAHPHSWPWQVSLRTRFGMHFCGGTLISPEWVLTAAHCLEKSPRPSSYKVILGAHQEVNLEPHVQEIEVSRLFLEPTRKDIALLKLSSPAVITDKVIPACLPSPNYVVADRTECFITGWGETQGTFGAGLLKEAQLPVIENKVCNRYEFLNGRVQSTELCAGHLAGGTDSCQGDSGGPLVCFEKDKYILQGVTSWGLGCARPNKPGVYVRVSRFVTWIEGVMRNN
Sequence (P00747 97-580 partner limits assumed, species assumed): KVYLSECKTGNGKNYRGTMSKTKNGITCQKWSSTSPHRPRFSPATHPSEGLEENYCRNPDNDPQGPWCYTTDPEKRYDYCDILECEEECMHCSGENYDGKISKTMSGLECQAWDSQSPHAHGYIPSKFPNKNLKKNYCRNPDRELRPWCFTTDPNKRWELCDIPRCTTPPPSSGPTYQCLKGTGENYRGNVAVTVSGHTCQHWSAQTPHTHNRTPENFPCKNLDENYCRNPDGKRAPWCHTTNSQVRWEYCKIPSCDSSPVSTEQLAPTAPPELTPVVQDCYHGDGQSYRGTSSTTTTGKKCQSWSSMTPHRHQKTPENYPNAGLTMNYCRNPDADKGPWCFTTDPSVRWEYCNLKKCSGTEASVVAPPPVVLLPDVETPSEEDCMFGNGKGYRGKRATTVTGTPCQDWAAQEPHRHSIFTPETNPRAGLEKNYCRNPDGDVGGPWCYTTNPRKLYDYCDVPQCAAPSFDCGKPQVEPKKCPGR
observable: IC50 (µM)
Number in µM, nothing else.

Form field - read-out: IC50; system: plasmin (Homo sapiens); submitted item: C=C(C)[C@@H]1CC[C@]2(C(=O)O)CC[C@]3(C)[C@H](CC[C@@H]4[C@@]5(C)CC[C@H](O)C(C)(C)[C@@H]5CC[C@]43C)[C@@H]12 [Example 9, Betulinic acid]
6.2

====

Molecular target: human leucocyte elastase (Homo sapiens, UniProt P08246)
Construct: purchased Elastin Products
Sequence (P08246 30-267): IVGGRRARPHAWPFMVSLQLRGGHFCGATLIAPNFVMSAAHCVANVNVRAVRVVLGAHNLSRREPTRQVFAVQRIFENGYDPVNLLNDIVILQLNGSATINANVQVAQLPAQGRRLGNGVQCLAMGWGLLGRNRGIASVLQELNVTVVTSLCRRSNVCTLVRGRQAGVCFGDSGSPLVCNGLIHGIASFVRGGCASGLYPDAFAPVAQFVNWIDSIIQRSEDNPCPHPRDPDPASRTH
Assay: Human leucocyte elastase (HLE) inhibition, MeO-Suc-Ala-Ala-Pro-Val-pNA substrate
Format: biochemical
Conditions: 0.1 M Tris, 0.5 M NaCl, 3% DMSO, pH 7.5; 15 min preincubation at room temperature; read-out: IC50
Experimental: Stock solutions were mixed to yield a reaction mixture consisting of 0.5 mM MeO-Suc-Ala-Ala-Pro-Val-pNA (Sigma) and […] human leucocyte elastase (Elastin Products) in 0.1 M Tris, 0.5 M NaCl and 3% DMSO (v/v) at a pH of 7.5. Test compounds were solubilized in DMSO. Equal volumes of enzyme and inhibitor were mixed and allowed to incubate for 15 minutes at room temperature. The reaction was started by the addition of a third equal volume containing substrate. […]
observable: IC50
Could you give the number and then its unit, please?

Solved cases below.
[[record]]
compound = "C=C(C)C1CCC2(C(=O)OC)CCC3(C)C(CCC4C5(C)CCC(OS(C)(=O)=O)C(C)(C)C5CCC43C)C12 (centres unmarked)"
resultvalue = "7.3 µM"

[[record]]
compound = "C=C(C)[C@@H]1CC[C@]2(C(=O)O)CC[C@]3(C)[C@H](CC[C@@H]4[C@@]5(C)CCC(=O)C(C)(C)[C@@H]5CC[C@]43C)[C@@H]12"
resultvalue = "11 µM"


Any idea what IC50 was measured for C=C(C)[C@@H]1CC[C@]2(C(=O)OC)CC[C@]3(C)[C@H](CC[C@@H]4[C@@]5(C)CC[C@H](O)C(C)(C)[C@@H]5CC[C@]43C)[C@@H]12 ?
5.7 µM

What measured IC50 goes with COC(=O)[C@]12CCC(C)(C)C[C@H]1C1=CC[C@@H]3[C@@]4(C)CC[C@H](O)C(C)(C)[C@@H]4CC[C@@]3(C)[C@]1(C)CC2 ?
8.5 µM

Fill blank: measured IC50 of the compound COC(=O)[C@]12CC[C@@H](C)[C@H](C)[C@H]1C1=CC[C@@H]3[C@@]4(C)CC[C@H](O)C(C)(C)[C@@H]4CC[C@@]3(C)[C@]1(C)CC2 is ____.
4.9 µM

Field request: IC50 | item: C=C(C)[C@@H]1CC[C@]2(COC(=O)CCC(=O)O)CC[C@]3(C)[C@H](CC[C@@H]4[C@@]5(C)CC[C@H](O)C(C)(C)[C@@H]5CC[C@]43C)[C@@H]12
6.3 µM

Please look up its IC50: C=C(C)[C@@H]1CC[C@]2(C(=O)O)CC[C@]3(C)[C@H](CC[C@@H]4[C@@]5(C)CC[C@H](O)C(C)(C)[C@@H]5CC[C@]43C)[C@@H]12
3.3 µM

Fill in: IC50 of CC1(C)CC[C@]2(C)CC[C@]3(C)C(=CC[C@@H]4[C@@]5(C)CC[C@H](O)C(C)(C)[C@@H]5CC[C@]43C)[C@@H]2C1 is ___
5.4 µM
